- experimental_target: human HPK1 (MAP4K1) (Homo sapiens (Human))
- method_summary: HPK1 IC50 Assay (TR-FRET peptide phosphorylation)
- Type: biochemical
- applied_conditions: recombinant HPK1 kinase domain 0.15 nM, 10 μM ATP, 1 μM STK S1 peptide; geometric mean of multiple experiments
pIC50: −log10 of the molar value.
measured_parameter: pIC50

Take a look at these entries with their results.
>  <compound>
CNC(=O)c1cc(Nc2nc(-c3ccc4c(c3)N([C@H]3C[C@@H](N5CCCC(C)(C)C5)C3)C(=O)C43CCN(C(C)=O)CC3)cc3ncn(C4CC4)c23)ccc1C

>  <pIC50>
10.22

$$$$
>  <compound>
COCC1(NC(=O)c2cc(Nc3nc(-c4ccc5c(c4)N([C@H]4C[C@@H](N6CCCCC6)C4)C(=O)C54CCN(C(C)=O)CC4)cc4ncn(C(C)C)c34)c(F)cc2C)CC1

>  <pIC50>
9.52

$$$$

I. CC[C@H](C)n1cnc2cc(-c3ccc4c(c3)N([C@H]3C[C@@H](N5CCC[C@@H](F)C5)C3)C(=O)C43CCN(C(C)=O)CC3)nc(Nc3ccc(C)c(C(=O)NC)c3)c21
II. CNC(=O)c1cc(Nc2nc(-c3ccc4c(c3)N([C@H]3C[C@@H](N5CCCCC5)C3)C(=O)C43CCN(C(=O)C(C)(C)C)CC3)cc3ncn(C4CC4)c23)ccc1C
**Q:** Lab note: check whether I or II has the lower measured pIC50. Give the chosen item's label as your response.
**A:** I
(I: 9.70, II: 10.05)

P. CC(C)n1cnc2cc(-c3cnc4c(c3)N([C@H]3C[C@@](C)(N5CCC[C@@H](F)C5)C3)C(=O)C4(C)C)nc(Nc3cc(C(=O)NC4(C(F)F)CC4)c(Cl)c(F)c3F)c21
Q. CC(C)n1cnc2cc(-c3cnc4c(c3)N(C3CC(C)(N5CCC6C[C@@H]6C5)C3)C(=O)C4(C)C)nc(Nc3cc(C(=O)NC4(C(F)F)CC4)c(Cl)c(F)c3F)c21 (some centres unmarked) [Example 262]
R. CC(C)n1cnc2cc(-c3cnc4c(c3)N([C@H]3C[C@@](C)(N5CCCOCC5)C3)C(=O)C4(C)C)nc(Nc3cc(C(=O)NC4(C(F)F)CC4)c(Cl)c(F)c3F)c21
**Q:** With regard to pIC50, arrange the entries in ascending order, please. Note for the reader: the ranking is given by listing the labels in the order requested.
**A:** P, Q, R

====

- experimental_target: human HPK1 (MAP4K1) (Homo sapiens (Human), UniProt Q92918)
- Sequence (Q92918 17-274): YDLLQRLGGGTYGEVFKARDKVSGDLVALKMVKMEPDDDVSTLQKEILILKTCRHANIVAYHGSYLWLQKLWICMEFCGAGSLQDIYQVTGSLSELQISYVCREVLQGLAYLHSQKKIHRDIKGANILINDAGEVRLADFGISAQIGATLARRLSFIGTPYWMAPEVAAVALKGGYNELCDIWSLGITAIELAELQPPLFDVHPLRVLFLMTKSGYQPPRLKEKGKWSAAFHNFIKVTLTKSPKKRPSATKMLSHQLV
- method_summary: HPK1 IC50 Assay (TR-FRET peptide phosphorylation)
- Assay type: biochemical
- applied_conditions: 0.15 nM HPK1, 10 μM ATP, 1 μM STK S1 peptide substrate; geometric mean
measured_parameter: IC50 (pM)

Example compounds with recorded IC50:
>  <test_smiles>
CCNC(=O)c1cc(Nc2nc(-c3cnc4c(c3)N([C@H]3C[C@@](C)(N5CCCC6(CC6)C5)C3)C(=O)C4(C)C)cc3ncn(C(C)C)c23)c(F)c(F)c1Cl

>  <IC50 / pM>
90

$$$$
>  <test_smiles>
CC(C)n1cnc2cc(-c3cnc4c(c3)N([C@H]3C[C@@](C)(N5CCCCC5)C3)C(=O)C4(C)C)nc(Nc3cc(C(=O)NCC(F)F)c(F)c(F)c3F)c21

>  <IC50 / pM>
40

$$$$
>  <test_smiles>
CC(C)n1cnc2cc(-c3ccc4c(c3)N([C@H]3C[C@@](C)(N5CCCCC5)C3)C(=O)C43CC3)nc(Nc3cc(C(=O)NCC(F)F)c(Cl)c(F)c3F)c21

>  <IC50 / pM>
60

$$$$

a. Cc1c(C(=O)NCC(F)F)cc(Nc2nc(-c3cc4c(nc3F)C(C)(C)C(=O)N4[C@H]3C[C@@](C)(N4CCCC5(CC5)C4)C3)cc3ncn(C(C)C)c23)c(F)c1F
b. CC(C)NC(=O)c1cc(Nc2nc(-c3cnc4c(c3)N([C@H]3C[C@@](C)(N5CCCCC5)C3)C(=O)C4(C)C)cc3ncn(C(C)C)c23)c(F)c(F)c1Cl
**Q:** Field: lower recorded IC50 (choose a or b ) # respond with the chosen item's label
**A:** a

====

- experimental_target: human HPK1 (MAP4K1) (Homo sapiens (Human))
- method_summary: HPK1 IC50 Assay (TR-FRET peptide phosphorylation)
- Type: biochemical
- applied_conditions: recombinant HPK1 kinase domain 0.15 nM, 10 μM ATP, 1 μM STK S1 peptide; geometric mean of multiple experiments
measured_parameter: IC50 (nM)

For orientation, consider the following solved cases.
>  <molecule>
CC(C)n1cnc2cc(-c3cnc4c(c3)N([C@H]3C[C@@](C)(N5CCCCCC5)C3)C(=O)C4(C)C)nc(Nc3cc(C(=O)NC4(C(F)F)CC4)c(Cl)c(F)c3F)c21

>  <IC50 / nM>
0.1

$$$$
>  <molecule>
CCNC(=O)c1cc(Nc2nc(-c3cnc4c(c3)N([C@H]3C[C@@](C)(N5CCC6CC6C5)C3)C(=O)C4(C)C)cc3ncn(C(C)C)c23)c(F)c(F)c1Cl (some centres unmarked)

>  <IC50 / nM>
0.04

$$$$
>  <molecule>
Cc1ccc(Nc2nc(-c3ccc4c(c3)N([C@H]3C[C@@H](N5CCCCC5)C3)C(=O)C4(C)C)cc3ncn(C(C)C)c23)cc1C(=O)NC1CC1

>  <IC50 / nM>
0.1

$$$$
>  <molecule>
CNC(=O)c1cc(Nc2nc(-c3ccc4c(c3)N([C@H]3C[C@@H](N5CCCCC5)C3)C(=O)C43CCN(C(=O)C45CC(C4)C5)CC3)cc3ncn(C4CC4)c23)ccc1Cl

>  <IC50 / nM>
0.07

$$$$
>  <molecule>
Cc1cc(F)c(Nc2nc(-c3ccc4c(c3)N([C@H]3C[C@@H](N5CCCCC5)C3)C(=O)C43CCN(C4COC4)CC3)cc3ncn(C(C)C)c23)cc1C(=O)NC(C)C

>  <IC50 / nM>
0.2

$$$$

P. Cc1ccc(Nc2nc(-c3ccc4c(c3)N([C@H]3C[C@@H](N5CCCCC5)C3)C(=O)C43CCOCC3)cc3ncn(C4CC4)c23)cc1C(N)=O
Q. CC(C)n1cnc2cc(-c3ccc4c(c3)N([C@H]3C[C@@](C)(N5CCCCC5)C3)C(=O)C4(C)C)nc(Nc3cc(C(=O)NC4(C(F)F)CC4)ccc3F)c21
R. CC(=O)N1CCC2(CC1)C(=O)N([C@H]1C[C@@H](N3CC4CCC(C3)O4)C1)c1cc(-c3cc4ncn(C(C)C)c4c(Nc4cc(C(=O)NC(C)C)c(C)cc4F)n3)ccc12
S. CNC(=O)c1cc(Nc2nc(-c3ccc4c(c3)N([C@H]3C[C@@H](N5CCCCC5)C3)C(=O)C43CCN(C(=O)C4CC4)CC3)cc3ncn(C4CC4)c23)ccc1C
**Q:** Ascending by IC50, please. Enter labels, ranked according to the request.
**A:** Q, P, S, R

====

- experimental_target: human HPK1 (MAP4K1) (Homo sapiens (Human), UniProt Q92918)
- method_summary: HPK1 IC50 Assay (TR-FRET peptide phosphorylation)
- Format: biochemical
- applied_conditions: recombinant HPK1 kinase domain 0.15 nM, 10 μM ATP, 1 μM STK S1 peptide; geometric mean of multiple experiments
- Description: The enzymatic activity of human HPK1 (MAP4K1) was monitored in a biochemical assay in the presence or absence of compounds and using a synthetic peptide substrate. An increase in phosphorylation of the peptide by HPK1 was indicative of its kinase activity. […] Data in Table 1 were normalized based on positive (staurosporine) and negative (DMSO) controls. […] IC50 values from multiple experiments were averaged by geometric mean and the standard deviation was calculated.
measured_parameter: IC50 (nM)

Solved cases (3 shown):
>  <molecule>
Cc1cc(F)c(Nc2nc(-c3ccc4c(c3)N([C@H]3C[C@@H](N5CCC[C@@H](F)C5)C3)C(=O)C4(C)C)cc3ncn(C(C)C)c23)cc1C(=O)NC(C)C [Example 110]

>  <numeric_readout>
0.2

$$$$
>  <molecule>
CNC(=O)c1cc(Nc2nc(-c3ccc4c(c3)N([C@H]3C[C@@H](N5CCCCC5)C3)C(=O)C43CCN(C(C)=O)CC3)cc3ncn(C4CC4)c23)ccc1C [Example 58a]

>  <numeric_readout>
0.1

$$$$
>  <molecule>
Cc1c(C(=O)NC2(C(F)F)CC2)cc(Nc2nc(-c3cnc4c(c3)N(C3CC(C)(N5CCC6C[C@@H]6C5)C3)C(=O)C4(C)C)cc3ncn(C(C)C)c23)c(F)c1F (some centres unmarked) [Example 233]

>  <numeric_readout>
0.08

$$$$

I. CNC(=O)c1cc(Nc2nc(-c3ccc4c(c3)N([C@H]3C[C@@H](N5CCCCC5)C3)C(=O)C43CCN(C(C)=O)CC3)cc3ncn(C4CC4)c23)c(F)cc1Cl [Example 93]
II. CNC(=O)c1cc(Nc2nc(-c3ccc4c(c3)N([C@H]3C[C@@H](N5CCC[C@@H](F)C5)C3)C(=O)C4(C)C)cc3ncn(C(C)C)c23)c(F)cc1C [Example 107]
**Q:** For the two items I and II , which reports the higher IC50 value? Use the label to indicate which entry you chose.
**A:** I
